- Test system: Rattus norvegicus
- ASSAY_COMMENT: Percent reversal of scopolamine-induced amnesia rat at 30 mg/kg po
- Assay type: functional
Decision: Reversal compared against 7%; not below it gives 1 (yes), below it gives 0 (no).

Worked cases, answers included:
# check: Reversal of NC(=O)CN1CC(O)CC1=O (stereo unspecified) [OXIRACETAM] is greater than or equal to 7%
1 (yes)

Given O=C1CN2C(=O)CCC2N1 (stereo unspecified) [DIMIRACETAM] , state whether its Reversal is at least 7%.
1 (yes)

In plain terms: is recorded Reversal at least 7% for CC12CCC(=O)N1CC(=O)N2 (stereo unspecified) ?
1 (yes)

Test whether the compound CC1C(=O)NC2(C)CCC(=O)N12 (stereo in doubt; 18 (S)) records Reversal of 7% or higher.
1 (yes)

Next:
Is reported Reversal greater than or equal to 7% here: O=C1NC2CCC(=O)N2C1CO (stereo unspecified)
0 (no)
